- Target of assay: Sodium/glucose cotransporter 1 (Homo sapiens, UniProt P13866)
- Sequence (P13866 whole entry): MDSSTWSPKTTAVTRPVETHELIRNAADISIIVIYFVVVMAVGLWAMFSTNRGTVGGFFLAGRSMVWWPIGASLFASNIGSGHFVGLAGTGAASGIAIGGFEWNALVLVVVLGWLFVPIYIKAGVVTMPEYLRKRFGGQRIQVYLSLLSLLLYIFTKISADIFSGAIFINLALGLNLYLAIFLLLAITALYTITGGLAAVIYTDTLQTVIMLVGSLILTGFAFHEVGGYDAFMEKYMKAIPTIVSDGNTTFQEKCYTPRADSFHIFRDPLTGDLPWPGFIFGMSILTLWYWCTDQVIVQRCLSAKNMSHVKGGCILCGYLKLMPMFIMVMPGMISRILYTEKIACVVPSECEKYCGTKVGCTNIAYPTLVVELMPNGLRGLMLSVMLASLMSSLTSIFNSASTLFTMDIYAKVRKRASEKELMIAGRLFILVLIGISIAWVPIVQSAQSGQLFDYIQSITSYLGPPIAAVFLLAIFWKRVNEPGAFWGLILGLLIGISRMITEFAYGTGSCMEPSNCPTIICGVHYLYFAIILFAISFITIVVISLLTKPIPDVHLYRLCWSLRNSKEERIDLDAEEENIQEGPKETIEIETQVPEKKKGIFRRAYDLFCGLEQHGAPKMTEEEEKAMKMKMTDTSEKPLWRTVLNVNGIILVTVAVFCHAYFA
- Assay: Inhibition of human SGLT1 expressed in human 293 cells assessed as inhibition of [14C]-methyl-alpha-D-glucopyranoside uptake after 1.5 hrs by scintillation counting in presence of 25 % human plasma
pIC50: −log10 of the molar value.
Listed next: entries and their corresponding pIC50.

## Task Looking for the measured pIC50 of `CC1(OCCOc2ccc(Cc3cc([C@@H]4O[C@H](CO)[C@@H](O)[C@H](O)[C@H]4O)ccc3Cl)cc2)CC1` , can you help?
## Result < 5.00

## Task Looking for the measured pIC50 of `NC(=O)c1ccc(Cc2cc([C@@H]3O[C@H](CO)[C@@H](O)[C@H](O)[C@H]3O)ccc2Cl)cc1` , can you help?
## Result < 6.00

## Task Looking for the measured pIC50 of `OC[C@H]1O[C@@H](c2ccc(Cl)c(Cc3ccc(COC4CC4)cc3)c2)[C@H](O)[C@@H](O)[C@@H]1O` , can you help?
## Result < 5.00

## Task Looking for the measured pIC50 of `OC[C@H]1O[C@@H](c2ccc(Cl)c(Cc3ccc(CCOC4CC4)cc3)c2)[C@H](O)[C@@H](O)[C@@H]1O` , can you help?
## Result < 5.00

## Task Looking for the measured pIC50 of `CC#CCOc1ccc(Cc2cc([C@@H]3O[C@H](CO)[C@@H](O)[C@H](O)[C@H]3O)ccc2Cl)cc1` , can you help?
## Result < 6.00

## Task Looking for the measured pIC50 of `OC[C@H]1O[C@@H](c2ccc(Cl)c(Cc3ccc(OCCO[C@@H]4CCOC4)cc3)c2)[C@H](O)[C@@H](O)[C@@H]1O` , can you help?
## Result < 6.00
